// data source = patent US20160145267A1

- Tested on: HeLa cell line
- experimental_details: Proliferation assay (HeLa cell line)
- Type: cell-based
- conditions_used: Homo sapiens, 96 h, 4 days incubation, crystal violet staining, read-out: Biological Assay 2: Proliferation assay (HeLa cell line) median IC50
measured_attribute: IC50 (µM)

>>> df
                                   compound  target_or_system  measured_attribute  recorded_value
0  CCOc1cc(F)c(Cn2nc(-c3nc(N)nc(Nc4ccncc4)n3)c(C)c2C2CC2)c(F)c1 [Example 2-1-8]    HeLa cell line                IC50             3.8
1  CCOc1cc(F)c(Cn2nc(-c3nc(N)c(NC(=O)COC)c(Nc4ccncn4)n3)c(C)c2C2CC2)c(F)c1 [Example 2-1-28]    HeLa cell line                IC50              10
2  CCOc1cc(F)c(Cn2nc(-c3nc(N)c(OCCOC)c(Nc4ccncn4)n3)c(C)c2C2CC2)c(F)c1 [Example 2-1-26]    HeLa cell line                IC50             4.2
3  CCOc1cc(F)c(Cn2nc(-c3nc(N)nc(Nc4ccncn4)n3)c(C)c2C2CC2)c(F)c1 [Example 2-1-9]    HeLa cell line                IC50               6
4  CCOc1cc(F)c(Cn2nc(-c3nc(Nc4ccncn4)c(OCCOC)c(Nc4ccncn4)n3)c(C)c2C2CC2)c(F)c1 [Example 2-2-13]    HeLa cell line                IC50              10
5  CCOc1cc(F)c(Cn2nc(-c3nc(N)nc(Nc4ccnnc4)n3)c(C)c2C2CC2)c(F)c1 [Example 2-1-24]    HeLa cell line                IC50               6
6  CCOc1cc(F)c(Cn2nc(-c3nc(NC(=O)NC4CCCCC4)c(N4CCOCC4)c(Nc4ccncc4)n3)c(C)c2C2CC2)c(F)c1 [Example 2-1-20]    HeLa cell line                IC50             3.3

====

- Tested on: HeLa-MaTu-ADR cell line
- experimental_details: Proliferation assay (HeLa-MaTu-ADR cell line)
- Format: cell-based
- conditions_used: 96 h, read-out: Biological Assay 2: Proliferation assay (HeLa-MaTu-ADR cell line) median IC50
pIC50: −log10 of the molar value.
Below is a list of entries, each paired with its recorded pIC50 value.
measured_attribute: pIC50

>>> df
                                     smiles  recorded_value
0  CCOc1cc(F)c(Cn2nc(-c3nc(Nc4ccncc4)c(OCCOC)c(Nc4ccncc4)n3)c(C)c2C2CC2)c(F)c1            6.14
1  CCOc1cc(F)c(Cn2nc(-c3nc(N)c(OC)c(Nc4ccncn4)n3)c(C)c2C2CC2)c(F)c1            5.46
2  CCNC(=O)Nc1cc(Nc2ccncc2)nc(-c2nn(Cc3c(F)cc(OCC)cc3F)c(C3CC3)c2C)n1            5.96
3  CCOc1cc(F)c(Cn2nc(-c3nc(Nc4ccncn4)cc(Nc4ccncn4)n3)c(C)c2C2CC2)c(F)c1            6.15
